Target: HeLa cell extract proteins (Homo sapiens)
Construct: endogenous in cells; host or cells: HeLa cell extract
Sequence (P00491 1-289): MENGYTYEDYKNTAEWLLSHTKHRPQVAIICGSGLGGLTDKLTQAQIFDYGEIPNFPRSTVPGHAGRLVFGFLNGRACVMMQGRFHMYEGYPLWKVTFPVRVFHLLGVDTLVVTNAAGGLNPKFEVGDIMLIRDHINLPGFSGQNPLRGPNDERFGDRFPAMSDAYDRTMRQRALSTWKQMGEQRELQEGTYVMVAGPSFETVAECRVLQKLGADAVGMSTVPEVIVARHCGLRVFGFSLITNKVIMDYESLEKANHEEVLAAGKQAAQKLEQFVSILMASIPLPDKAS
Type: binding
Conditions: protein NP; HeLa
property name: fold changes relative to vehicle control
// no unit string in output, number only

Request: Return fold changes relative to vehicle control measured with HeLa cell extract proteins (Homo sapiens) given this molecule: NCCCNc1ccc(C(=O)NC(CCC(=O)O)C(=O)O)cc1 (stereo not drawn) [compound 7]
Result: 0.89

Request: Return fold changes relative to vehicle control measured with HeLa cell extract proteins (Homo sapiens) given this molecule: Nc1nc2c(c(=O)[nH]1)N(C=O)C(CNc1ccc(C(=O)N[C@@H](CCC(=O)O)C(=O)O)cc1)CN2 (stereo partly drawn) [LEU, leucovorin]
Result: 0.9

Request: Return fold changes relative to vehicle control measured with HeLa cell extract proteins (Homo sapiens) given this molecule: Nc1nc2cccc(-c3ccccc3)c2n1Cc1ccc(Cl)c(Cl)c1 [compound 3]
Result: 0.96

Request: Return fold changes relative to vehicle control measured with HeLa cell extract proteins (Homo sapiens) given this molecule: CCCCCCOc1cccc(Cc2cnc(N)nc2N)c1 [compound 2]
Result: 1.4

Request: Return fold changes relative to vehicle control measured with HeLa cell extract proteins (Homo sapiens) given this molecule: CCCCCCOc1ccc(Cc2cnc(N)nc2N)cc1 [compound 1]
Result: 1.16

Request: Return fold changes relative to vehicle control measured with HeLa cell extract proteins (Homo sapiens) given this molecule: NCCOCCOCC(=O)Nc1nc2ncc(CNc3ccc(C(=O)NC(CCC(=O)O)C(=O)O)cc3)nc2c(=O)[nH]1 (stereo not drawn) [compound 6]
Result: 1.08

* * *

target: HeLa cell extract proteins (Homo sapiens, UniProt O00408); construct: endogenous in cells; host or cells: HeLa cell extract; type: binding; conditions: protein PDE2A; HeLa
Sequence (O00408 whole entry): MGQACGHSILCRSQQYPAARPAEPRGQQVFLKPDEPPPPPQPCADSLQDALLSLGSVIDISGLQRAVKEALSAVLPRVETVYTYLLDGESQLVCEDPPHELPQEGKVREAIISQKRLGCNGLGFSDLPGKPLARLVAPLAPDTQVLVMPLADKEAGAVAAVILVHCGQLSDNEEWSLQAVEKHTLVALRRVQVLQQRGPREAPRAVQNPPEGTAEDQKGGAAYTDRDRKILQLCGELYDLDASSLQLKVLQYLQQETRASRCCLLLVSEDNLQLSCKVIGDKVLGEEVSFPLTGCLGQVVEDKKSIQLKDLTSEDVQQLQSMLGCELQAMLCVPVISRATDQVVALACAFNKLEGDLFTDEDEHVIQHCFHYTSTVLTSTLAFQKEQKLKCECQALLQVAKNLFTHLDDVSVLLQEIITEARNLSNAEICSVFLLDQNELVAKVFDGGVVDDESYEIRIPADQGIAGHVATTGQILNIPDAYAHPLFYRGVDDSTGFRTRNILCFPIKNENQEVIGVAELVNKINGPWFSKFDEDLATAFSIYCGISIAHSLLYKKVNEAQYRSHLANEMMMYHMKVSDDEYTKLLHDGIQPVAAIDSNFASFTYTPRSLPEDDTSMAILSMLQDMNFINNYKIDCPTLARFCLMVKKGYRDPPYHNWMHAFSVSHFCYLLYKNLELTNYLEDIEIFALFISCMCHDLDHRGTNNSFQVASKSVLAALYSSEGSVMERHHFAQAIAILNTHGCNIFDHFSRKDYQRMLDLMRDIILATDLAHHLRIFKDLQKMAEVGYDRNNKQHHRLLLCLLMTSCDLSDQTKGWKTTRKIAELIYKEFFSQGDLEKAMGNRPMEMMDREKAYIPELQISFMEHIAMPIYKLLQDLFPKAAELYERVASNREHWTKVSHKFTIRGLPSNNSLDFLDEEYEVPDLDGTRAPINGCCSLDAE
property name: fold changes relative to vehicle control
// no unit string in output, number only

Request: Which fold changes relative to vehicle control value is on record for CCCCCCOc1cccc(Cc2cnc(N)nc2N)c1 [compound 2] ?
Result: 1.7

Request: Which fold changes relative to vehicle control value is on record for CCCCCCOc1ccc(Cc2cnc(N)nc2N)cc1 [compound 1] ?
Result: 0.61

Request: Which fold changes relative to vehicle control value is on record for Nc1nc2c(c(=O)[nH]1)N(C=O)C(CNc1ccc(C(=O)N[C@@H](CCC(=O)O)C(=O)O)cc1)CN2 (stereo partly drawn) [LEU, leucovorin] ?
Result: 0.73

Request: Which fold changes relative to vehicle control value is on record for NCCCNc1ccc(C(=O)NC(CCC(=O)O)C(=O)O)cc1 (stereo not drawn) [compound 7] ?
Result: 0.7

Request: Which fold changes relative to vehicle control value is on record for NCCOCCOCC(=O)Nc1nc2ncc(CNc3ccc(C(=O)NC(CCC(=O)O)C(=O)O)cc3)nc2c(=O)[nH]1 (stereo not drawn) [compound 6] ?
Result: 0.79

Request: Which fold changes relative to vehicle control value is on record for Nc1nc2cccc(-c3ccccc3)c2n1Cc1ccc(Cl)c(Cl)c1 [compound 3] ?
Result: 0.64

* * *

Kindly state fold changes relative to vehicle control for each of the entries shown.
Target: HeLa cell extract proteins (Homo sapiens, UniProt P22695)
Construct: endogenous in cells; host or cells: HeLa cell extract
Sequence (P22695 15-453): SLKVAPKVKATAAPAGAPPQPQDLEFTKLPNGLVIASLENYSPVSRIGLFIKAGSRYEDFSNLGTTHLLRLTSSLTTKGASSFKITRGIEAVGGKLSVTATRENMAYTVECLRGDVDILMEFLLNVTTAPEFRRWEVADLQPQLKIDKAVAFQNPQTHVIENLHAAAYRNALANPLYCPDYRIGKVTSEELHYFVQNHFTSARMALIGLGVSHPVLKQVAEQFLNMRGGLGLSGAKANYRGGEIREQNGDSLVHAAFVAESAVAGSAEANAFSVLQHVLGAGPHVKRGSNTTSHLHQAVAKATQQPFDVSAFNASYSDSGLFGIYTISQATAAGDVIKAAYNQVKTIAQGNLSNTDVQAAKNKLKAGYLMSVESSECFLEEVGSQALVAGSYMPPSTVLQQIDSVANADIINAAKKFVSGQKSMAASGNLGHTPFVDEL
Type: binding
Settings: HeLa; protein UQCRC2
// no unit string in output, number only

Request: Return fold changes relative to vehicle control measured with HeLa cell extract proteins (Homo sapiens, UniProt P22695) given this compound: `CCCCCCOc1cccc(Cc2cnc(N)nc2N)c1`
Result: 0.99

Request: Return fold changes relative to vehicle control measured with HeLa cell extract proteins (Homo sapiens, UniProt P22695) given this compound: NCCCNc1ccc(C(=O)NC(CCC(=O)O)C(=O)O)cc1 (stereo not drawn)
Result: 1.03

Request: Return fold changes relative to vehicle control measured with HeLa cell extract proteins (Homo sapiens, UniProt P22695) given this compound: NCCOCCOCC(=O)Nc1nc2ncc(CNc3ccc(C(=O)NC(CCC(=O)O)C(=O)O)cc3)nc2c(=O)[nH]1 (stereo not drawn)
Result: 0.95

Request: Return fold changes relative to vehicle control measured with HeLa cell extract proteins (Homo sapiens, UniProt P22695) given this compound: Nc1nc2c(c(=O)[nH]1)N(C=O)C(CNc1ccc(C(=O)N[C@@H](CCC(=O)O)C(=O)O)cc1)CN2 (stereo partly drawn)
Result: 0.9

Request: Return fold changes relative to vehicle control measured with HeLa cell extract proteins (Homo sapiens, UniProt P22695) given this compound: `Nc1nc2cccc(-c3ccccc3)c2n1Cc1ccc(Cl)c(Cl)c1`
Result: 1.01

Request: Return fold changes relative to vehicle control measured with HeLa cell extract proteins (Homo sapiens, UniProt P22695) given this compound: `CCCCCCOc1ccc(Cc2cnc(N)nc2N)cc1`
Result: 0.97

* * *

Kindly state fold changes relative to vehicle control for each of the entries shown.
target: HeLa cell extract proteins (Homo sapiens, UniProt O43242); construct: endogenous in cells; host or cells: HeLa cell extract; format: binding; conditions: protein PSMD3; HeLa
Sequence (O43242 whole entry): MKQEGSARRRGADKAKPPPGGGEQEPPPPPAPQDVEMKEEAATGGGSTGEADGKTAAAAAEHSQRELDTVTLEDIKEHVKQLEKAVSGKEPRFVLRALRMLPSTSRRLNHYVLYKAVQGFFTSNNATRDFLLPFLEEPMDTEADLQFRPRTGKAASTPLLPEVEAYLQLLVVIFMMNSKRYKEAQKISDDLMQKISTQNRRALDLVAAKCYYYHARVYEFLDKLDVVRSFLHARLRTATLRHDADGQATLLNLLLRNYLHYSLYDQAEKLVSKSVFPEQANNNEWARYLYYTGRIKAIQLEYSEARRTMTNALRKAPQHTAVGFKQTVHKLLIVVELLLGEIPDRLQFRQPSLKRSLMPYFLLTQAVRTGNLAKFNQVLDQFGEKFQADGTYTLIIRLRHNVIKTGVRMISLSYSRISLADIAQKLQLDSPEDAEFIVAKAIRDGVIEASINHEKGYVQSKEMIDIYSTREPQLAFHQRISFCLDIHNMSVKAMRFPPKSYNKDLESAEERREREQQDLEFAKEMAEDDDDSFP
// no unit string in output, number only

Request: Return fold changes relative to vehicle control measured with HeLa cell extract proteins (Homo sapiens, UniProt O43242) given this compound: NCCOCCOCC(=O)Nc1nc2ncc(CNc3ccc(C(=O)NC(CCC(=O)O)C(=O)O)cc3)nc2c(=O)[nH]1 (stereo not drawn)
Result: 1.17

Request: Return fold changes relative to vehicle control measured with HeLa cell extract proteins (Homo sapiens, UniProt O43242) given this compound: Nc1nc2c(c(=O)[nH]1)N(C=O)C(CNc1ccc(C(=O)N[C@@H](CCC(=O)O)C(=O)O)cc1)CN2 (stereo partly drawn)
Result: 1.08

Request: Return fold changes relative to vehicle control measured with HeLa cell extract proteins (Homo sapiens, UniProt O43242) given this compound: `Nc1nc2cccc(-c3ccccc3)c2n1Cc1ccc(Cl)c(Cl)c1`
Result: 1.1

Request: Return fold changes relative to vehicle control measured with HeLa cell extract proteins (Homo sapiens, UniProt O43242) given this compound: NCCCNc1ccc(C(=O)NC(CCC(=O)O)C(=O)O)cc1 (stereo not drawn)
Result: 1.02

Request: Return fold changes relative to vehicle control measured with HeLa cell extract proteins (Homo sapiens, UniProt O43242) given this compound: `CCCCCCOc1cccc(Cc2cnc(N)nc2N)c1`
Result: 1.51

Request: Return fold changes relative to vehicle control measured with HeLa cell extract proteins (Homo sapiens, UniProt O43242) given this compound: `CCCCCCOc1ccc(Cc2cnc(N)nc2N)cc1`
Result: 1.21

* * *

Kindly state fold changes relative to vehicle control for each of the entries shown.
biological target: HeLa cell extract proteins (Homo sapiens); construct: endogenous in cells; host or cells: HeLa cell extract; assay type: binding; conditions: HeLa; protein SHMT2
// no unit string in output, number only

Request: Which fold changes relative to vehicle control value is on record for NCCOCCOCC(=O)Nc1nc2ncc(CNc3ccc(C(=O)NC(CCC(=O)O)C(=O)O)cc3)nc2c(=O)[nH]1 (stereo not drawn) [compound 6] ?
Result: 1.3

Request: Which fold changes relative to vehicle control value is on record for Nc1nc2c(c(=O)[nH]1)N(C=O)C(CNc1ccc(C(=O)N[C@@H](CCC(=O)O)C(=O)O)cc1)CN2 (stereo partly drawn) [LEU, leucovorin] ?
Result: 1.01

Request: Which fold changes relative to vehicle control value is on record for Nc1nc2cccc(-c3ccccc3)c2n1Cc1ccc(Cl)c(Cl)c1 [compound 3] ?
Result: 0.92

Request: Which fold changes relative to vehicle control value is on record for NCCCNc1ccc(C(=O)NC(CCC(=O)O)C(=O)O)cc1 (stereo not drawn) [compound 7] ?
Result: 1.02

Request: Which fold changes relative to vehicle control value is on record for CCCCCCOc1ccc(Cc2cnc(N)nc2N)cc1 [compound 1] ?
Result: 0.8

Request: Which fold changes relative to vehicle control value is on record for CCCCCCOc1cccc(Cc2cnc(N)nc2N)c1 [compound 2] ?
Result: 1.53

All values here come from paper PMC6199744.
